- MEASURED ON: Estrogen receptor (Homo sapiens)
- PROTOCOL: qHTS assay to identify small molecule antagonists of the estrogen receptor alpha (ER-alpha) signaling pathway using the BG1 cell line in the presence of 0.1 nM 17-beta-estradiol (AID 1259244); further: on the % scale 0 is the no-effect control and ±100 the full control effect; nearly all actives have a fitted effect of over 50% in size
- MEASUREMENT CONDITIONS: VM7Luc4E2 (BG1) ERE-luciferase, antagonist mode, 0.1 nM E2, 22 h; series mostly up to 92.4 µM
Results filed as inconclusive are left out. Calls of active or inactive are those of the source. The call rests on the fitted dose curve; in most records, active means well fitted inhibition curve with a large enough effect in the repeat runs; inconclusive means weak or mixed curves; inactive means no such curve, though single readings can be large or run the other way.
Recorded activity change, negative = inhibition for the following compounds

Please review the following examples before continuing.
INSERT INTO assay_data (compound, assay_endpoint, endpoint_result) VALUES
  ('CC1CN(c2cc3c(cc2F)c(=O)c(C(=O)O)cn3-c2ccc(F)cc2F)CCN1 (centres undefined)', 'activity change, negative = inhibition', '-1% [at 8.39 µM] (inactive)'),
  ('CCCC(=O)O[C@]1(C(=O)COC(=O)CC)CC[C@H]2[C@@H]3CCC4=CC(=O)CC[C@]4(C)[C@H]3[C@@H](O)C[C@@]21C', 'activity change, negative = inhibition', '31.4% [at 19 µM] (inactive)'),
  ('C=CCCCCCCCCCCCCCCCC', 'activity change, negative = inhibition', '11.9% [at 8.39 µM] (inactive)');

API: the following record is the query input.
I'd like to know its activity change, negative = inhibition. The compound in question is `CN1CCN(c2c(F)cc3c(=O)c(C(=O)O)cn4c3c2OCN4C)CC1` 2.06% [at 19 µM] (inactive)
